z-score listing for selected compounds.
test: kinase inhibitors altering Pseudomonas killing of worms, whole organism (AID 651566);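 further: tested at 14 µM; sign flipped so higher z means a lower ratio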; settings: C. elegans killed by P. aeruginosa, survival ratio
The answer should be written as a number, with no unit following it.

Recorded z-score, per entry:
| compound | z-score |
| --- | --- |
| CNC(=O)c1cncc(/C=C/c2c(Cl)cccc2Cl)c1 | 0.1 |
| COc1ccc(-c2ccc3c(NC(=O)C4CC4)n[nH]c3n2)cc1 | 0.15 |
| O=S1CCN(Cc2ccc(-c3ccc4ncnc(Nc5ccc(OCc6cccc(F)c6)c(Cl)c5)c4c3)o2)CC1 | -0.375 |
| Cc1cc(O)cc(C)c1/C=C/c1cncc(C(=O)OC(C)(C)C)c1 | 0.75 |

Q) Dear colleague, I am looking for the recorded z-score of the following compound: "NCc1ccc(-c2nc(-c3ccc(Cl)c(O)c3)c(-c3ccncc3)[nH]2)cc1"
A) 1.2

Q) Dear colleague, I am looking for the recorded z-score of the following compound: "c1ccc(-c2nc3n(c2-c2ccc4c(c2)OCO4)CCC3)nc1"
A) 1.04

Q) Dear colleague, I am looking for the recorded z-score of the following compound: "CN1CCC(n2cnc(-c3ccc(F)cc3)c2-c2ccnc(NCCO)n2)CC1"
A) 0.4

Q) Dear colleague, I am looking for the recorded z-score of the following compound: "Cc1nnc(-c2cccc(-c3ccc(C(=O)NCC4CC4)cc3)c2)o1"
A) 0.175

Q) Dear colleague, I am looking for the recorded z-score of the following compound: "CCc1cccc(NC(=O)Nc2ccc(Oc3ccc4nc(NC(=O)OC)[nH]c4c3)cc2)c1"
A) -0.175

Q) Dear colleague, I am looking for the recorded z-score of the following compound: "CN(C)c1cc2c(Nc3ccc4nc(Cc5ccccc5)[nH]c4c3)ncnc2cn1"
A) 0.16

Values from PubChem BioAssay
